tested on: MDA-MB-231; assay: Cytotoxicity against human MDA-MB-231 cells measured after 48 hrs by MTS assay; type: cell-based; settings: mda-mb-231, 48 h
OBSERVABLE: Activity

SMILES INPUT: CC[C@H](C)[C@H]1C(=O)O[C@@H](CCCCC[C@@H](C)O)C[C@@H](O)[C@@H](C)C(=O)N[C@H](Cc2ccccc2)C(=O)N1C
OBSERVABLE: Activity
MEASURED RESULT: Non-Toxic

SMILES INPUT: CC(C)[C@H]1C(=O)O[C@H]([C@@H](C)CCCC[C@@H](C)O)C[C@@H](O)[C@@H](C)C(=O)N[C@H](Cc2ccccc2)C(=O)N1C
OBSERVABLE: Activity
MEASURED RESULT: Non-Toxic

SMILES INPUT: CC[C@H](C)[C@H]1C(=O)O[C@H]([C@@H](C)CCCC[C@@H](C)O)C[C@@H](O)[C@@H](C)C(=O)N[C@H](Cc2ccccc2)C(=O)N1C
OBSERVABLE: Activity
MEASURED RESULT: Non-Toxic

SMILES INPUT: CC(C)C[C@H]1C(=O)O[C@H]([C@@H](C)CCCC[C@@H](C)O)C[C@@H](O)[C@@H](C)C(=O)N[C@H](Cc2ccccc2)C(=O)N1C
OBSERVABLE: Activity
MEASURED RESULT: Non-Toxic

Data provenance is ChEMBL document CHEMBL4339236.
